So I've got a bunch of compounds here, and I need their Kd values.
- protocol-notes: Label-free microscale thermophoresis (MST) melanin binding assay
- conditions: Table S2; normalized fluorescence, 60% excitation power; read-out: Kd, MST mode (Fnorm)
- Procedure: Synthetic melanin was purchased from Sigma Aldrich (#M8631-100 mg). […] Melanin binding of each of the 13 model compounds was determined (for the concentrations in the assay, see Table 1). […] The normalized fluorescence is the ratio of relative fluorescence of the selected region after heating (hot region) and relative initial fluorescence before the heating (cold region, i.e., relative fluorescence values before the infrared laser was switched on). […]
Give bare numbers, in µM.

Past entries and their recorded results:
compound	Kd, µM
CC(C)(C)NCC(O)COc1cccc2c1CC(O)C(O)C2 (stereo not shown)	260
COc1ccc(Cc2nccc3cc(OC)c(OC)cc23)cc1OC	93
C[C@H]1COc2c(N3CCN(C)CC3)c(F)cc3c(=O)c(C(=O)O)cn1c23	47
CCN(CC)CCCC(C)Nc1ccnc2cc(Cl)ccc12 (stereo not shown)	0.8
COc1cc2nc(N3CCN(C(=O)C4CCCO4)CC3)nc(N)c2cc1OC (stereo not shown)	96

Any idea what Kd was measured for CC(C)(C)NC[C@H](O)COc1nsnc1N1CCOCC1 ?
260
